Assay: small molecules captured by biotinylated probe aFGF10 – biochemical, small-molecule microarray, fluorescence 635/667, stem cell growth factor project, primary screen (AID 1071);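 note: score merges 667 nm spot intensity and signal to noise from triplicate slides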
Settings: higher = more signal
Short version: composite z-score at least 0.1 is t, less is f.

{"Molecule": "COc1ccc([C@H]2C[C@H]3C(Br)=C[C@@]2(CO)C(=O)[C@]32CO2)cc1", "Answer label": "f"}
{"Molecule": "CCCCN1CC=CC23O[C@@H]4/C=C\\CCCOC(=O)C4[C@H]2C(=O)N(CCCO)[C@@H]3C1=O (some centres undefined)", "Answer label": "f"}
{"Molecule": "CC(=O)n1cc(C(O)C2C=CC3C(=O)NC(=O)C3N2Nc2ccccn2)c2ccccc21 (centres undefined)", "Answer label": "t"}
{"Molecule": "COCC(=C=CC[C@H](O)c1ccccc1OCCO)CCO", "Answer label": "t"}
{"Molecule": "C#CCN1[C@H](/C=C/C2CC2)[C@H](Cc2ccccc2)OC(=O)[C@@H]1Cc1ccccc1", "Answer label": "f"}
{"Molecule": "O=C1C2C=CC(C(O)c3ccc4c(c3)OCO4)N(Nc3ccc([N+](=O)[O-])cc3)C2C(=O)N1c1ccccc1 (centres undefined)", "Answer label": "t"}
{"Molecule": "COCCOC(=O)N1C(=O)[C@@]2(c3cc(C#CCCO)ccc31)[C@H](c1ccc(O)cc1)N1[C@H](c3ccccc3)[C@H](c3ccccc3)OC(=O)[C@H]1[C@@H]2C(=O)N1CCN(c2ncccn2)CC1", "Answer label": "t"}
{"Molecule": "C=CCNC(=O)[C@H]1[C@@H]2C(=O)O[C@@H](c3ccccc3)[C@@H](c3ccccc3)N2[C@@H](c2ccc(OCCO)cc2)[C@]12C(=O)Nc1ccc(C#CCC(C(=O)OC)C(=O)OC)cc12", "Answer label": "t"}
{"Molecule": "CCN(CC)c1ccc(N2CC=CC34O[C@@H]5C=CCOC(=O)[C@@H]5[C@H]3C(=O)N(CCCCCCO)[C@@H]4C2=O)cc1 (some centres undefined)", "Answer label": "f"}
